Test System: Era (Staphylococcus aureus)
Sequence (Q2FY06 1-299): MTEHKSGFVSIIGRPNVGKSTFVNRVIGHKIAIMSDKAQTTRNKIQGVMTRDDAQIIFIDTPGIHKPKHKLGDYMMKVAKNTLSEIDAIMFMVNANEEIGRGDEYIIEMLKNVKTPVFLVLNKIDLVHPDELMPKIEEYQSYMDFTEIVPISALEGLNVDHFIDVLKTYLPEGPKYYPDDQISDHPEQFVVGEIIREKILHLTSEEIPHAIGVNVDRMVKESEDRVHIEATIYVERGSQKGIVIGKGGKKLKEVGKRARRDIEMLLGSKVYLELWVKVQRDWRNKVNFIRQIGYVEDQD
Recorded Endpoint: pKd
Here pKd is given on a logarithmic scale as minus log10 of the concentration in mol/L.

-- ask Using the record for Nc1nc2c(ncn2[C@@H]2O[C@H](COP(=O)(O)OP(=O)(O)O)[C@@H](OP(=O)(O)OP(=O)(O)O)[C@H]2O)c(=O)[nH]1 , report its pKd.
-- reply 5.51
